test: chemical genetic growth profiling, strain panel (AID 1159580);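 also: tested at 20 µM; growth read once vehicle control cultures reached saturation at 30 °C; 1 = growth at the plate median or of vehicle wells; lower values mean less growth of the strain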; settings: S. cerevisiae deletion strains, growth OD, locus YNL161W, strain CBK1, active compounds read low
About 2,000 (36%) of roughly 5,500 compounds were called active. Not shown: some 18% with an inconclusive outcome. Some of the results follow.
value_type: normalized growth
// no unit, no text: just the number

Req: Form field: reported normalized growth of O=C(Nc1cccc(Cl)c1)O/N=C1\CCCc2occc21
Resp: 0.945

Req: Next entry: COc1c(Br)csc1C(=O)O/N=C(/N)c1cc(C(F)(F)F)cc(C(F)(F)F)c1
Resp: 0.982

Req: Now the same for CC(=O)c1ccc(Cl)c(N=Cc2cc(Cl)cc(Cl)c2O)c1
Resp: 0.955

Req: Next: Cc1c(C)c(C)c(C(=O)c2ccc(N=Cc3cc(Cl)cc(Cl)c3O)cc2)c(C)c1C
Resp: 0.925

Req: Note, next up: Cc1cc(/C(N)=N\OC(=O)C(C)(C)C)cc(/C(N)=N\OC(=O)C(C)(C)C)c1
Resp: 0.988

---

experiment: chemical genetic growth profiling, strain panel (AID 1159580); settings: S. cerevisiae deletion strains, growth OD, locus YHR129C, strain ARP1, active compounds read low
The whole screen tested about 5,500 compounds, of which about 2,000 (36%) were called active. About 18% were inconclusive and are not listed. Some of the results follow.
value_type: normalized growth
Reply briefly: the number, and no unit.

Req: Given the entry CN(C)[C@@H]1C(=O)C(C(N)=O)=C(O)[C@@]2(O)C(=O)C3=C(O)c4c(O)ccc(Cl)c4[C@@H](O)[C@H]3C[C@@H]12 , report its measured normalized growth.
Resp: 1.01

Req: Also, CN(C)[C@@H]1C(=O)C(C(N)=O)=C(O)[C@@]2(O)C(=O)C3=C(O)c4c(O)cccc4[C@@](C)(O)[C@H]3[C@H](O)[C@@H]12 please.
Resp: 1.01

Req: Continue with C=C1c2cccc(O)c2C(O)=C2C(=O)[C@]3(O)C(O)=C(C(N)=O)C(=O)[C@@H](N(C)C)[C@@H]3[C@@H](O)[C@H]12
Resp: 0.982

Req: Moving on to the next molecule: CN(C)c1ccc(O)c2c1C[C@H]1C[C@H]3[C@H](N(C)C)C(=O)C(C(N)=O)=C(O)[C@@]3(O)C(=O)C1=C2O
Resp: 0.99

Req: Can you handle CCCc1cc(=O)[nH]c(=S)[nH]1 next?
Resp: 1.02

Req: And for Cc1cc(=O)[nH]c(=S)[nH]1 ?
Resp: 1.02

Req: Now consider COc1ccc(C2Sc3ccccc3N(CCN(C)C)C(=O)C2OC(C)=O)cc1 (centres undefined) .
Resp: 1.01

Req: What would you report for CN(C)CCCN1c2ccccc2Sc2ccc(C(F)(F)F)cc21 ?
Resp: 1

Req: Similarly, CN(C)CCCN1c2ccccc2Sc2ccccc21 ?
Resp: 1.02

---

For each of the compounds below, state its normalized growth.
assay: chemical genetic growth profiling, strain panel (AID 1159580);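 also: tested at 20 µM; growth read once vehicle control cultures reached saturation at 30 °C; 1 = growth at the plate median or of vehicle wells; lower values mean less growth of the strain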; details: S. cerevisiae deletion strains, growth OD, locus YLR342W, strain FKS1 (second series), active compounds read low
The campaign covered roughly 5,500 compounds. About 2,000 (36%) were called active. Not shown: some 18% with an inconclusive outcome. The list shows a part of the results.

Req: Value lookup for normalized growth; key = CC(C)=CC1C(C(=O)O)C1(C)C (stereo unspecified)
Resp: 1.03 (inactive)

Req: Moving on to the next compound: CC(=O)c1cc(CC=C(C)C)c(O)c(CC=C(C)C)c1
Resp: 1.03 (inactive)

Req: Proceed to CC(=O)O[C@H]1CCC2(C)C3=C(CCC2C1(C)C)[C@@]1(C)CC[C@@H](C(C)CCC=C(C)C)[C@]1(C)CC3 (stereo partly specified)
Resp: 0.953 (inactive)

Req: Now the compound CC(C)CCCC(C)C1CC[C@@]2(C)C3=C(CC[C@]12C)[C@@]1(C)CC[C@H](O)C(C)(C)C1CC3 (stereo partly specified)
Resp: 0.96 (inactive)

Req: Now try CCOC(=O)NNc1nncc2ccccc12 .
Resp: 0.973 (inactive)

Req: Also check Cc1cc(=O)oc2cc(O)c(O)cc12
Resp: 0.992 (inactive)

---

For each record, write down the corresponding normalized growth.
assay: chemical genetic growth profiling, strain panel (AID 1159580);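 also: tested at 20 µM; growth read once vehicle control cultures reached saturation at 30 °C; 1 = growth at the plate median or of vehicle wells; lower values mean less growth of the strain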; conditions: S. cerevisiae deletion strains, growth OD, locus YNL298W, strain CLA4 (second series), active compounds read low
The whole screen tested about 5,500 compounds, of which about 2,000 (36%) were called active. About 18% were inconclusive and are not listed. The list shows a part of the results.

Req: I am curious: what normalized growth value has been reported for c1ccc(-c2csc(-c3ccncc3)n2)cc1 ?
Resp: 0.829 (active)

Req: Try this compound too: c1ccc(-c2nc(-c3cccs3)cs2)cc1
Resp: 0.714 (active)

Req: Also, NC(N)=NC(N)=Nc1ccc2c(c1)OCCO2 please.
Resp: 0.993 (inactive)

Req: Next compound: CCOC(=O)c1ccc(NC(=O)CCC(=O)O)cc1
Resp: 1.01 (inactive)

Req: Param item: CC(=O)Nc1ccc(S(=O)(=O)Nc2c(C)n(C)n(-c3ccccc3)c2=O)cc1
Resp: 1 (inactive)

Req: Same read-out for Clc1cncc(Cl)c1N/N=C\C1CC2C=CC1C2 (configuration not stated) ?
Resp: 0.799 (active)

Req: Query O=C(O)CSC1CCS(=O)(=O)C1 (configuration not stated) next
Resp: 1.01 (inactive)

Req: Lookup CCOC(=O)c1ccc(NC(N)=S)cc1
Resp: 1 (inactive)

Req: Moving on to the next compound: NC(=S)CSc1ccccc1
Resp: 0.711 (active)

Req: One more compound: C=Cc1c(SC)sc(C(=O)O)c1C
Resp: 1.02 (inactive)

Req: Same again, this time with CCCCCCc1cc2c(C)cc(=O)oc2cc1O
Resp: 0.942 (inactive)

Req: Continue with Cc1ccc(Sc2ccc([N+](=O)[O-])cc2/C=C2\SC(=S)NC2=O)cc1
Resp: 0.887 (inactive)

Req: Input CSc1ncc(C#N)c2nc(-c3ccc(N(C)C)cc3)nn12
Resp: 1.04 (inactive)

Req: Try this compound next: Nc1ccc2nonc2c1N
Resp: 0.95 (inactive)

Req: What do you have for OC(c1ccccc1)(c1ccccc1)c1ccncc1 ?
Resp: 1.01 (inactive)

Req: And for N#CC(c1ccccc1)N1CCCCC1 (configuration not stated) ?
Resp: 0.985 (inactive)

Req: And then CCCc1cc(=O)oc2c1c(C)nn2-c1ccccc1 , what is it?
Resp: 0.839 (active)

Req: N/C(Cc1cccc2ccccc12)=N/O , same question.
Resp: 1.02 (inactive)

Req: Quick one: FC(F)(F)c1cc(-c2noc(C3CCc4ccccc4O3)n2)cc(C(F)(F)F)c1 (configuration not stated)
Resp: 1.01 (inactive)

Req: And COc1c(Br)cc(/C(N)=N\OC(=O)c2c(-c3c(Cl)cccc3Cl)noc2C)cc1Br ?
Resp: 1.05 (inactive)

Req: Okay, and O=C1NC2CC2N1C(=O)OCc1ccccc1 (configuration not stated) ?
Resp: 0.954 (inactive)

Req: // repeat for Cn1ncc(C(=O)O/N=C(/N)c2cc(C(F)(F)F)cc(C(F)(F)F)c2)c1-n1cccc1 and report
Resp: 1.02 (inactive)

Req: Could you do the same for N#CCCC1(CCC#N)c2ccccc2-c2ccccc21 , please?
Resp: 1.01 (inactive)

Req: Item: O=C(O)CCCNCc1cccc2ccccc12
Resp: 1 (inactive)

Req: And what about the compound CSc1sc(C#N)c2c1C(O)CCC2 (configuration not stated) ?
Resp: 0.964 (inactive)

Req: Entry to check: C(=C(c1ccccc1)c1ccccc1)N1CCC1
Resp: 1 (inactive)

Req: Next compound: Fc1cc(F)cc(COc2cc(Cl)cc(Cl)c2)c1
Resp: 0.919 (inactive)

---

assay: chemical genetic growth profiling, strain panel (AID 1159580);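 also: tested at 20 µM; growth read once vehicle control cultures reached saturation at 30 °C; 1 = growth at the plate median or of vehicle wells; lower values mean less growth of the strain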; conditions: S. cerevisiae deletion strains, growth OD, locus YMR205C, strain PFK2, active compounds read low
In all, about 5,500 compounds went through this assay and about 2,000 (36%) were called active. Another 18% or so got no clear call; they are omitted. The list shows a part of the results.
Give measured normalized growth for each item. Keep answers brief.
No unit in the answer, only the number.

Req: Given the entry CC(C)NCC(O)COc1ccc(COCCOC(C)C)cc1 (stereo unspecified) , report its measured normalized growth.
Resp: 0.981

Req: Next up: CO[C@H]1CC(O[C@@H]2/C(C)=C/C[C@@H]3C[C@@H](C[C@]4(CC[C@H](C)[C@@H](C5CCCCC5)O4)O3)OC(=O)[C@@H]3C=C(C)/C(=N\O)[C@H]4OC/C(=C\C=C\[C@@H]2C)[C@]43O)O[C@@H](C)C1O (stereo partly specified)
Resp: 0.997

Req: And for CC1=CCCC2C1(C)CCC(C)C2(C)CC/C(C)=C/C[n+]1cn(C)c2c(N)ncnc21 (stereo unspecified) ?
Resp: 0.925

Req: Can you check OC[C@H]1O[C@@H](O[C@@H]2[C@@H](CO)O[C@](O)(CO)[C@H]2O)[C@H](O)[C@@H](O)[C@H]1O next?
Resp: 1.03

Req: Okay, and COC(=O)/C(=C1\OC(=O)C(c2ccccc2)=C1O)c1ccccc1 ?
Resp: 0.965

Req: Consider next the compound CNCCCC12CCC(c3ccccc31)c1ccccc12 in the same way.
Resp: 0.999

Req: Also, OC[C@H]1O[C@@](CO)(O[C@@H]2O[C@H](CO)[C@@H](O)[C@H](O)[C@H]2O)[C@@H](O[C@@H]2O[C@H](CO)[C@@H](O)[C@H](O)[C@H]2O)[C@@H]1O please.
Resp: 1.04

Req: Entry NC(=O)NC(=O)Cc1ccccc1 please
Resp: 1.01

Req: Try O=P1(NCCCl)OCCCN1CCCl (stereo unspecified) next.
Resp: 1.01

Req: Next record, please: CS(=O)(=O)Nc1ccc([N+](=O)[O-])cc1Oc1ccccc1
Resp: 0.974

Req: Another compound to look at: CC(=O)c1cc(CC=C(C)C)c(O)c(CC=C(C)C)c1
Resp: 1.01

Req: And the next one, CCCOc1ccc2nc(NC(=O)OC)[nH]c2c1 ?
Resp: 1.03

Req: Likewise for CCCc1cc(=O)[nH]c(=S)[nH]1 ?
Resp: 1.03

Req: // next record CCC(C)[C@H]1O[C@]2(C=C[C@@H]1C)C[C@@H]1C[C@@H](C/C=C(\C)[C@@H](OC3C[C@H](OC)C(O[C@H]4C[C@H](OC)[C@@H](O)[C@H](C)O4)[C@H](C)O3)[C@@H](C)/C=C/C=C3\CO[C@@H]4[C@H](O)C(C)=C[C@@H](C(=O)O1)[C@]34O)O2 (stereo partly specified)
Resp: 0.77

Req: Next up: Cc1c(C)c2c(c(C)c1O)CCC(C)(CCCC(C)CCCC(C)CCCC(C)C)O2 (stereo unspecified)
Resp: 0.933

Req: Consider next the compound CC(C)=CCc1c2c(c3occ(-c4ccc(O)c(O)c4)c(=O)c3c1O)C=CC(C)(C)O2 in the same way.
Resp: 0.957

Req: Then NC(Cn1ccc(=O)c(O)c1)C(=O)O (stereo unspecified) ?
Resp: 1.01

Req: Try CS(=O)(=O)c1ccc([C@@H](O)[C@@H](CO)NC(=O)C(Cl)Cl)cc1 next.
Resp: 1.01

Req: Another compound to check: CC(=O)O[C@@H]1CC2C(C)(C)[C@H](O)C=C[C@]2(C)C2CC[C@]3(C)C(=CC(=O)O[C@H]3c3ccoc3)[C@@]21C (stereo partly specified)
Resp: 0.98

Req: Try this compound too: N=C(N)N
Resp: 1.01

Req: Next up: O=C(OCc1ccccc1)c1ccccc1
Resp: 0.899

Req: What about this compound? CC(Cc1cccc(C(F)(F)F)c1)NCCOC(=O)c1ccccc1 (stereo unspecified)
Resp: 0.961

Req: What do you get for CC(=O)OCC(=O)[C@@]1(O)[C@H](C)CC2C3CCC4=CC(=O)C=C[C@]4(C)[C@@]3(F)[C@@H](O)C[C@@]21C (stereo partly specified) ?
Resp: 0.958

Req: Next: C/C=C\C1=C(C(=O)O)N2C(=O)C(NC(=O)C(N)c3ccc(O)cc3)C2SC1 (stereo unspecified)
Resp: 1.02

Req: Another compound: CCN(CC)CCOC(=O)C1(C2CCCCC2)CCCCC1
Resp: 0.985

Req: Follow-up item: Cc1cc(=O)[nH]c(=S)[nH]1
Resp: 0.976

Req: Field entry: CC(C)=CCc1c2c(c3occ(-c4ccc(O)cc4)c(=O)c3c1O)C=CC(C)(C)O2
Resp: 0.902

Req: What do you get for CC(C)=CC1C(C(=O)O)C1(C)C (stereo unspecified) ?
Resp: 0.932

Req: Do the same for CCCSc1ccc2nc(NC(=O)OC)[nH]c2c1 please
Resp: 1.03

Req: Then what about the compound CC(=O)O[C@@H]1CC2C(C)(C)C(=O)C=C[C@]2(C)C2CC[C@]3(C)C(=CC(=O)O[C@H]3c3ccoc3)[C@@]21C (stereo partly specified) ?
Resp: 1

Req: What do you have for Cc1cc(=O)oc2cc(O)c(O)cc12 ?
Resp: 1.02

Req: Now the compound C=C1C[C@]23C[C@@]1(O)CC[C@H]2[C@@]12C=C[C@H](O)[C@@](C)(C(=O)O1)[C@H]2[C@@H]3C(=O)O
Resp: 1.02

Req: Entry CC(C)(C)NCC(O)c1ccc(O)c(CO)c1 (stereo unspecified) please
Resp: 1.02

Req: // repeat for CC(C)c1ccc2c(c1)CCC1[C@](C)(CN)CCC[C@]21C (stereo partly specified) and report
Resp: 0.933

Req: // repeat for NS(=O)(=O)c1cc2c(cc1Cl)NC(CSCc1ccccc1)=NS2(=O)=O and report
Resp: 1.02

Req: Same read-out for CC(C)C[C@@H](CN)CC(=O)O ?
Resp: 0.993

Req: Thanks! And O=C(CC(=O)c1ccccc1)c1ccccc1 ?
Resp: 0.242

Req: Param item: Cc1cn[nH]c1
Resp: 1.08

Req: Then this compound: C[n+]1ccccc1/C=N/O
Resp: 1.01

Req: Try CC12CCC3C(CC3(C)C)C(C)(CCC1=O)O2 (stereo unspecified) next.
Resp: 1.01

Req: How about this compound: NCC(N)C(=O)c1ccccc1 (stereo unspecified)
Resp: 1.06
